assay: gradient 5% acetonitrile 3 min, to 50% in 2 min, to 85% in 15 min, held 3 min, 100 µL/min; conditions: column: Zorbax Extend-C18 2.1 x 50 mm; eluents: water / acetonitrile, 0.1% formic acid
Experimental endpoint: RP-LC retention time (s)

| Item smiles | RP-LC retention time / s |
| --- | --- |
| O=S(=O)(c1cccnc1)N1CC(c2nc(-c3ccncc3)no2)C1 | 663 |
| COC(=O)C1=CN(c2ccc(OC)c(OC)c2)c2ccc(F)cc2S1(=O)=O | 788 |
| CCC(=O)N(C1CCOCC1)C1CCN(S(=O)(=O)c2ccc(C)c(C)c2)CC1 | 869 |
| O=c1nc(SCc2csc(-c3ccccc3)n2)c2c(n1CCCO)CCC2 | 736 |

Values from the METLIN SMRT retention time set (Domingo-Almenara et al. 2019)
